# System: MET
# assay: MET biochemical kinase assay
# Design: species or system human; concentration or dose not given beside the values
quantity measured: Met Kinase % Inhibition

> print(dat)
                               smiles.string        quantity.measured  reading
 1  CCN(CC)c1ccc(C=C2C(=O)Nc3ccc(S(=O)(=O)N4CCOCC4)cc32)c(O)c1  Met Kinase % Inhibition    73.8%
 2  COc1ccc(C=C2C(=O)Nc3ccc(CCCl)cc32)c(O)c1  Met Kinase % Inhibition    80.7%
 3  CNS(=O)(=O)c1ccc2c(c1)C(=Cc1[nH]c(C)cc1C)C(=O)N2  Met Kinase % Inhibition    45.3%
 4       Cc1c(Br)ccc2c1C(=Cc1ccccc1O)C(=O)N2  Met Kinase % Inhibition    72.5%
 5  CCOc1ccc(C=C2C(=O)Nc3ccc(S(=O)(=O)NC)cc32)cc1OC  Met Kinase % Inhibition    27.5%
 6  CNS(=O)(=O)c1ccc2c(c1)C(=Cc1c(OC)cc(OC)cc1OC)C(=O)N2  Met Kinase % Inhibition    11.2%
 7    Cc1cn(C)cc1C=C1C(=O)Nc2c(Br)cc(Br)cc21  Met Kinase % Inhibition    54.7%
 8  Cc1c(Br)ccc2c1C(=Cc1coc3c(Br)cc(Br)cc3c1=O)C(=O)N2  Met Kinase % Inhibition    42.9%
 9  COc1ccc(O)c(C=C2C(=O)Nc3ccc(Br)c(C)c32)c1  Met Kinase % Inhibition    62.6%
10  Cc1c(Br)ccc2c1C(=Cc1cc(C(F)(F)F)ccc1F)C(=O)N2  Met Kinase % Inhibition    25.5%
11  COC(=O)c1[nH]c(C)c(C=C2C(=O)Nc3ccc(S(=O)(=O)Nc4ccc(C(F)(F)F)cc4)cc32)c1C(=O)OC  Met Kinase % Inhibition    80.5%
12  O=C1Nc2ccc(CCCl)cc2C1=Cc1cccc(C(F)(F)F)c1F  Met Kinase % Inhibition    42.4%
13  CCc1c(C)[nH]c(C=C2C(=O)Nc3ccc(CCCl)cc32)c1C  Met Kinase % Inhibition    15.9%
14  COc1c(I)cc(C=C2C(=O)Nc3ccc(CCCl)cc32)cc1C(C)(C)C  Met Kinase % Inhibition    63.0%

meta.source: patent EP1247803A2
